The origin of these recorded values is patent US4875922A.

- Tested on: Rice
- PROTOCOL NOTES: Whole plant screen for plant growth regulator activity, rice (RC)
- Format: in vivo, Rice (Ishikari)
- CONDITION: 4000 ppm (4 kg/ha), visual score after 2-6 weeks
What R = Retardation was measured for each of the following?

{"columns": ["MOLECULE", "EXPERIMENTAL TARGET", "R = Retardation"],
 "data": [
  ["CCCCC#CC(O)(c1cncnc1)C(C)C (stereo not shown)", "Rice", "2 (31-60%)"],
  ["CC(C)CCC(O)(c1cncnc1)C(C)(C)C (stereo not shown)", "Rice", "2 (31-60%)"],
  ["CCC(C)CCCC(O)(c1cncnc1)C(C)C (stereo not shown)", "Rice", "2 (31-60%)"],
  ["CCC(C)CCC(O)(c1cncnc1)C(C)C (stereo not shown)", "Rice", "2 (31-60%)"],
  ["CC(C)C#CC(O)(c1cncnc1)C(C)C (stereo not shown)", "Rice", "1 (10-30%)"]
]}

Quick request: R = Retardation for each listed item, please.
1. CC(C)CCCC(O)(c1cncnc1)C(C)(C)C (stereo not shown)
2. CC(C)C#CC(O)(c1cncnc1)C(C)(C)C (stereo not shown)
3. CC(C)C(O)(C#CC(C)(C)C)c1cncnc1 (stereo not shown)
4. CC(C)CCC(O)(c1cncnc1)C(C)C (stereo not shown)

OUT:
2 (31-60%)
3 (61-100%)
2 (31-60%)
2 (31-60%)

Quick request: R = Retardation for each listed item, please.
1. CCCCCCC(O)(c1cncnc1)C(C)(C)C (stereo not shown)
2. CC(C)CC#CC(O)(c1cncnc1)C(C)(C)C (stereo not shown)
3. CC(C)CCCC(O)(c1cncnc1)C(C)C (stereo not shown)
4. CC(C)(C)C(O)(C#CCCCCl)c1cncnc1 (stereo not shown)
5. CC(C)C(O)(CCC(C)(C)C)c1cncnc1 (stereo not shown)

OUT:
1: 2 (31-60%); 2: 3 (61-100%); 3: 2 (31-60%); 4: 2 (31-60%); 5: 2 (31-60%)

Quick request: R = Retardation for each listed item, please.
1. CCC(C)C#CC(O)(c1cncnc1)C(C)C (stereo not shown)
2. CCCCCC(O)(c1cncnc1)C(C)C (stereo not shown)

OUT:
1: 2 (31-60%); 2: 3 (61-100%)

Quick request: R = Retardation for each listed item, please.
1. CC(C)CCC#CC(O)(c1cncnc1)C(C)C (stereo not shown)
2. CCCC#CC(O)(c1cncnc1)C(C)(C)C (stereo not shown)
3. CCCC#CC(O)(c1cncnc1)C(C)C (stereo not shown)

OUT:
2 (31-60%)
3 (61-100%)
3 (61-100%)
